Values compiled from patent US3988462A.

- PROCEDURE_DETAILS: Serum concentration after intravenous injection in mice
- SETUP_CONDITIONS: mouse, 2.5 mg/kg
MEASUREMENT_KIND: concentration at 10 min (ng/mL)
Provide only the numeric value, understood in ng/mL.

Please give the documented concentration at 10 min of CC=CC(C)=CC(C)C(=O)CC(O)CC1CC(=O)NC(=O)C1 (stereo not shown) [Antibiotic TS-885]
1800

----------
- PROCEDURE_DETAILS: Serum concentration after intravenous injection in mice
- SETUP_CONDITIONS: mouse, 25 mg/kg
MEASUREMENT_KIND: concentration at 0.5 h (ng/mL)
Provide only the numeric value, understood in ng/mL.

Please give the documented concentration at 0.5 h of CC=CC(C)=CC(C)C(=O)CC(O)CC1CC(=O)NC(=O)C1 (stereo not shown) [Antibiotic TS-885]
2400

----------
- PROCEDURE_DETAILS: Cytotoxicity, tube dilution method
- Assay type: cell-based
- SETUP_CONDITIONS: monkey, monkey kidney cells, MEM medium, read-out: Minimum Inhibitory Concentration, tube dilution method
MEASUREMENT_KIND: MCC at 48 h (µg/mL)
Provide only the numeric value, understood in µg/mL.

Please give the documented MCC at 48 h of CC=CC(C)=CC(C)C(=O)CC(O)CC1CC(=O)NC(=O)C1 (stereo not shown) [Antibiotic TS-885]
0.4
